- assay-explanation: chemical genetic growth profiling, strain panel (AID 1159580);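 further: tested at 20 µM; growth read once vehicle control cultures reached saturation at 30 °C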
- condition-summary: S. cerevisiae deletion strains, growth OD, locus YFR010W, strain ubp6, stronger effect = lower value
Screen size: about 5,500 compounds; about 2,000 (36%) were called active. Inconclusive results (about 18%) are left out. This is one part of the list.
Labelling field: enter fulfilled if recorded normalized growth is less than 1. Enter not fulfilled if it equals or exceeds that cut-off.

Past entries and their recorded results:
CC(=O)O[C@@H]1c2c(ccc3ccc(=O)oc23)OC(C)(C)[C@@H]1OC(=O)CC(C)C; not fulfilled
O=C(Oc1ccccc1C(=O)O)c1ccccc1O; fulfilled
O=C(Oc1cccc2cccnc12)c1ccccc1; fulfilled

Moving on to the next molecule.
I wonder whether Nc1ccc(S(=O)(=O)Nc2ncccn2)cc1 has normalized growth below 1. Can you tell? fulfilled
